FYI, the data here is from patent US20220306695A1.

Molecular target: T1, Human C3 (human, UniProt P01024 23-1663)
T1 construct: In SPR the bought human C3 was immobilised on CM5 chips by amine coupling; In the haemolysis assay the C3 is that of diluted human serum; also called complement C3
T1 sequence (P01024 23-1663 limits assumed): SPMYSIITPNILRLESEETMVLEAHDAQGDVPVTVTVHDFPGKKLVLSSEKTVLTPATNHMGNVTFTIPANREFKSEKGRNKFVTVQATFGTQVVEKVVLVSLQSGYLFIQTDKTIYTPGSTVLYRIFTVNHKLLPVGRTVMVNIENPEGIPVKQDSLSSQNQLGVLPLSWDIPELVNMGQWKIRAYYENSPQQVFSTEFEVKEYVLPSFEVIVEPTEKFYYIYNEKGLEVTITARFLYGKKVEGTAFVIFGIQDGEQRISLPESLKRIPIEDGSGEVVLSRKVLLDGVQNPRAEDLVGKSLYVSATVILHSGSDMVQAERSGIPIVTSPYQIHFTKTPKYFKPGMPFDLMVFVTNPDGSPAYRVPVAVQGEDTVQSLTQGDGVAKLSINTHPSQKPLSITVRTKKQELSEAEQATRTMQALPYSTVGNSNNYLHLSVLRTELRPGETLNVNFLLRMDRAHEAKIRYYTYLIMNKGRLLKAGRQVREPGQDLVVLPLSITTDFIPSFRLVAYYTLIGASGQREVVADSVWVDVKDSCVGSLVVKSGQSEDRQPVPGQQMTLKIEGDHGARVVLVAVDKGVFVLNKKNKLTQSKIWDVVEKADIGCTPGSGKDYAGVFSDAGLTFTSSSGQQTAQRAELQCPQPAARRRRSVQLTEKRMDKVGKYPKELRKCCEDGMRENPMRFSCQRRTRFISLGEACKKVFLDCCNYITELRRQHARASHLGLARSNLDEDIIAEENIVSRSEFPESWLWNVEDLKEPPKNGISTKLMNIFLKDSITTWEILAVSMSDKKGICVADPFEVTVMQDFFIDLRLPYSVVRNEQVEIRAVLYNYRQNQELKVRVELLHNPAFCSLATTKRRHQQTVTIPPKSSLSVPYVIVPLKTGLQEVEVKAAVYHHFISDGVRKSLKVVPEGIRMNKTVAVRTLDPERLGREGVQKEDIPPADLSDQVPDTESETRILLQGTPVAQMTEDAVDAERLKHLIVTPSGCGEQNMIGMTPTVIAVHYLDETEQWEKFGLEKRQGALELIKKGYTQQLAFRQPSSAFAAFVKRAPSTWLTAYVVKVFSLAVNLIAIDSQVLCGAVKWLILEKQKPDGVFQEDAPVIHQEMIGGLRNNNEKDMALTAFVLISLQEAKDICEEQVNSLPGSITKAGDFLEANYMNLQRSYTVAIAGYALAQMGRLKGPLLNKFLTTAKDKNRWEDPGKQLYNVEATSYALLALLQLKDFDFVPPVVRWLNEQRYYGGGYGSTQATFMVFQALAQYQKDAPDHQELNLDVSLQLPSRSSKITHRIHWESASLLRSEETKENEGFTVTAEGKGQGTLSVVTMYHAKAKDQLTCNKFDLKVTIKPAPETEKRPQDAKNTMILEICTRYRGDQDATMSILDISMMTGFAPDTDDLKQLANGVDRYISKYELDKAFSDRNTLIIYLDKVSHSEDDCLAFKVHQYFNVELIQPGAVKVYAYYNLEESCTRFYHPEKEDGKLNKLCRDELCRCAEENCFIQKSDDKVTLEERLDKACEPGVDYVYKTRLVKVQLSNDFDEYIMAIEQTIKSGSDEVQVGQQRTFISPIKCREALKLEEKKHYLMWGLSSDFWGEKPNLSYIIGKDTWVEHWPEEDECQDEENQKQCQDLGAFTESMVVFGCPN
Test: SPR, C3 immobilised
Starred links: 1 amine or outer side, 2 acyl side, 3 side chain; linkers in the order of their positions; H or OH if unused. Positions of bridges follow the written chain, without caps; N, C: chain ends. Non-standard residues stand in square brackets, D forms with d. Groups on a side chain read outwards from the residue. *: point of attachment. Trp(1-Me) = Cn1cc(C[C@H](N)C(=O)O)c2ccccc21; C18 diacid = O=C(O)CCCCCCCCCCCCCCCCC(=O)*; γGlu = O=C(O)[C@H](CCC(=O)[*:2])N[*:1]; hCys = N[C@@H](CCS)C(=O)O; AEEA = NCCOCCOCC(=O)O; Sar = CNCC(=O)O
Let's look at some binders and their measured pKd.
Here pKd is given on a logarithmic scale as minus log10 of the concentration in mol/L.

### Prompt Fill in: pKd of Ac-ICIWQDWGEHSCT-NH2 (disulfide 2-12; SMILES CC[C@H](C)[C@H](NC(C)=O)C(=O)N[C@H]1CSSC[C@@H](C(=O)N[C@H](C(N)=O)[C@@H](C)O)NC(=O)[C@H](CO)NC(=O)[C@H](Cc2c[nH]cn2)NC(=O)[C@H](CCC(=O)O)NC(=O)CNC(=O)[C@H](Cc2c[nH]c3ccccc23)NC(=O)[C@H](CC(=O)O)NC(=O)[C@H](CCC(N)=O)NC(=O)[C@H](Cc2c[nH]c3ccccc23)NC(=O)[C@H]([C@@H](C)CC)NC1=O) [Compound 20] is ___
### Response 7.43

### Prompt Check Ac-SEF[hCys]I[Trp(1-Me)]QEWGEHRA[Sar]EGE[AEEA][AEEA]K([γGlu-Gly-γGlu-C18 diacid])-NH2 (thioether 4-14) [Compound 167] too.
### Response 7.24

### Prompt Check Ac-SEYCI[Trp(1-Me)]QDWGEHRC[Sar]EGE[AEEA][AEEA]K([γGlu-Gly-γGlu-C18 diacid])-NH2 (disulfide 4-14) [Compound 117] too.
### Response 7.62
